tested on: HCoV 229E; assay: HCoV 229E cytopathic effect (CPE) assay; format: cell-based, Human Coronavirus (HCov) 229E; details: CellTiter Glo
observation.type: EC50

Example entries and their recorded answers appear below.
compound	EC50
COc1cccc2[nH]c(C(=O)N3C[C@@H]4CCC[C@@H]4[C@H]3C(=O)N[C@H](C#N)C[C@@H]3CCNC3=O)cc12	< 2 µM
CCNC(C#N)[C@H](C[C@@H]1CCNC1=O)NC(=O)[C@H](CC(C)C)NC(=O)c1cc2c(OC)cccc2[nH]1 (single isomer, unassigned) [511 (Isomer 1)]	< 2 µM
N#C[C@H](C[C@@H]1CCNC1=O)NC(=O)[C@H](CC1CC1)NC(=O)c1cc2c([nH]1)CCCC2	< 2 µM
CC(C)C[C@H](NC(=O)c1cc2c(OC(F)F)cccc2[nH]1)C(=O)N[C@H](C#N)C[C@@H]1CCNC1=O	< 2 µM
COc1cccc2[nH]c(C(=O)N3CC4(CCC4)CC3C(=O)N[C@H](C#N)C[C@@H]3CCCNC3=O)cc12 (single isomer, unassigned) [719 (Isomer 2)]	< 2 µM

Now consider a different compound.
Please tell me the measured EC50 for COc1cccc2[nH]c(C(=O)N[C@@H](CC(C)C)C(=O)N[C@@H](C[C@@H]3CCNC3=O)C(O)C#N)cc12 (single isomer, unassigned) [134 (Isomer 1)] ; system: HCoV 229E.
< 2 µM

====

Parameter: pIC50. Scope: all listed entries.
biological target: 229E mPRO (Human coronavirus 229E (HCoV-229E), UniProt P0C6X1); assay: 229E mPRO enzymatic assay; type: biochemical, Human Coronavirus (HCov) 229E; conditions: read-out: 229E mPRO IC50
Sequence (P0C6X1 2966-3267 limits assumed): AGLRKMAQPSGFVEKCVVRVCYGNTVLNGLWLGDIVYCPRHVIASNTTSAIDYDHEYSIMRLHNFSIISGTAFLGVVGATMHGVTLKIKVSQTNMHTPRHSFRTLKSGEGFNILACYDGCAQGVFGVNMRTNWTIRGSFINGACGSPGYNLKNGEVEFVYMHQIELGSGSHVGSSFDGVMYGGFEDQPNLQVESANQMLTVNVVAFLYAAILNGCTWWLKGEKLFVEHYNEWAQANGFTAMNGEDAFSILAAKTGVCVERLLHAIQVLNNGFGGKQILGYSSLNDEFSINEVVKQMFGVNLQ
pIC50: −log10 of the molar value.

Example entries and their recorded answers appear below.
compound	pIC50
COc1cccc2[nH]c(C(=O)N[C@@H](CC(C)C)C(=O)N[C@@H](C[C@@H]3CCNC3=O)C(C#N)N3CCCC3)cc12 (single isomer, unassigned) [331 (Isomer 2)]	> 5.70
COc1cccc2[nH]c(C(=O)N[C@@H](CC(C)C)C(=O)N[C@H](C#N)Cc3cn(C)cn3)cc12	< 4.52

Now consider a different compound.
Return reported pIC50. Input compound: "COc1cccc2[nH]c(C(=O)N3C[C@H](OC)C[C@H]3C(=O)N[C@H](C#N)C[C@@H]3CCNC3=O)cc12"
> 5.70

====

tested on: cell viability without virus infection; experiment: Cytotoxicity under the 229E CPE conditions without virus infection (CellTiter Glo); details: read-out: 229E CC50
observation.type: CC50

Return reported CC50. Input molecule: CC(C)CC(NC(=O)c1nc2ncccc2[nH]1)C(=O)NC(C#N)CC1CCNC1=O (single isomer, unassigned) [130 (Isomer 1)]
> 30 µM

====

Parameter: pEC50. Scope: all listed entries.
test system: HCoV 229E; experiment: HCoV 229E cytopathic effect (CPE) assay; type: cell-based, Human Coronavirus (HCov) 229E; details: CellTiter Glo
pEC50: −log10 of the molar value.

Example entries and their recorded answers appear below.
compound	pEC50
CCNC(C#N)[C@H](C[C@@H]1CCNC1=O)NC(=O)[C@H](CC(C)C)NC(=O)c1cc2c(OC)cccc2[nH]1 (stereo partly drawn) [Compound 511]	> 5.70
COc1cccc2[nH]c(C(=O)N3CC4(CCCCC4)CC3C(=O)N[C@H](C#N)C[C@@H]3CCNC3=O)cc12 (single isomer, unassigned) [389A (Isomer 1)]	> 5.70

Return reported pEC50. Input compound: COc1cccc2[nH]c(C(=O)N[C@@H](CC(C)C)C(=O)N[C@@H](C[C@@H]3CCNC3=O)C(C#N)N3CCCC3)cc12 (single isomer, unassigned) [331 (Isomer 1)]
> 5.70
